Test method notes: AUC in rat at 30 mg/kg administered as iv infusion for 0.5 hrs and measured upto 24 hrs by HPLC-MS analysis
Type: ADME, organism-based
Set-up: time < 24.5 hrs, dose 30 mg/kg, route iv
Condition set: in vivo
Reported metric: AUC at 24.5 h

Per the records, this molecule ( CSCC(=O)N[C@H]1CC=C[C@H](CC(=O)[O-])OB1O.[Na+] ) has AUC at 24.5 h equal to 28100 ng·h/mL

###

Test method notes: Oral bioavailability in rat
Format: ADME, organism-based
Condition set: in vivo
Reported metric: bioavailability (%)
Give just the number in %; leave the unit off.

Per the records, this compound ( O=C(Cc1cccs1)N[C@H]1CC=C[C@@H]2CC(=O)OB1O2 ) has bioavailability equal to 48

###

Test method notes: Oral bioavailability in rat at 100 mg/kg measured upto 24 hrs by HPLC-MS analysis
Assay type: ADME, organism-based
Condition set: in vivo
Reported metric: bioavailability (%)
Give just the number in %; leave the unit off.

Per the records, this molecule ( CSCC(=O)N[C@H]1CC=C[C@@H]2CC(=O)OB1O2 ) has bioavailability equal to 69.3

###

Test system: Klebsiella pneumoniae
Test method notes: Potentiation of aztreonam-induced antibacterial activity against Klebsiella pneumoniae 1004 producing KPC assessed as concentration required to reduce aztreonam MIC to 4 ug/ml by CLSI based broth microdilution method
Assay type: functional
Recorded EC values for a group of compounds are listed next.
Please answer in the form of a number followed by its unit of measurement.

Some entries whose results are on file:
{"columns": ["Compound", "Reported metric", "Result"],
 "data": [
  ["CSCC(=O)N[C@H]1CC=C[C@H](CC(=O)O)OB1O", "EC", "10 µg/mL"],
  ["O=C(O)CC1COC[C@H](NC(=O)Cc2cccs2)B(O)O1 (stereo partly specified)", "EC", "40 µg/mL"]
]}

Per the records, this compound ( COC(=O)N1CC(CC(=O)O)OB(O)[C@@H](NC(=O)Cc2cccs2)C1 (stereo partly specified) ) has EC equal to 40 µg/mL

Per the records, this compound ( CC(=O)N1CC(CC(=O)O)OB(O)[C@@H](NC(=O)Cc2cccs2)C1 (stereo partly specified) ) has EC equal to 40 µg/mL

Per the records, this compound ( O=C(O)C[C@@H]1C=CC[C@H](NC(=O)Cc2cccs2)B(O)O1 ) has EC equal to 40 µg/mL

Per the records, this compound ( O=C(O)C[C@H]1C=CC[C@H](NC(=O)Cc2cccs2)B(O)O1 ) has EC equal to 10 µg/mL

###

Recorded AUC at 24 h values for a group of compounds are listed next.
Test method notes: AUC in rat at 30 mg/kg, po measured upto 24 hrs by HPLC-MS analysis
Type: ADME, organism-based
Design: dose 30 mg/kg, time < 24 hrs, route po
Condition set: in vivo
Give just the number in ng·h/mL; leave the unit off.

{"columns": ["Smiles string", "AUC at 24 h, ng·h/mL"],
 "data": [
  ["CSCC(=O)N[C@H]1CC=C[C@H](CC(=O)[O-])OB1O.[Na+]", 2600]
]}

Consider now this further compound.
Per the records, this compound ( CSCC(=O)N[C@H]1CC=C[C@@H]2CC(=O)OB1O2 ) has AUC at 24 h equal to 14600

###

Test method notes: AUC in rat at 300 mg/kg, po measured upto 24 hrs by HPLC-MS analysis
Assay type: ADME, organism-based
Design: dose 300 mg/kg, time < 24 hrs, route po
Condition set: in vivo
Reported metric: AUC at 24 h (µg·h/mL)
Give just the number in µg·h/mL; leave the unit off.

Per the records, this compound ( CSCC(=O)N[C@H]1CC=C[C@@H]2CC(=O)OB1O2 ) has AUC at 24 h equal to 179

###

Test method notes: AUC in rat at 100 mg/kg, po measured upto 24 hrs by HPLC-MS analysis
Type: ADME, organism-based
Design: time < 24 hrs, dose 100 mg/kg, route po
Condition set: in vivo
Reported metric: AUC at 24 h
Please answer in the form of a number followed by its unit of measurement.

Per the records, this molecule ( CSCC(=O)N[C@H]1CC=C[C@@H]2CC(=O)OB1O2 ) has AUC at 24 h equal to 55000 ng·h/mL

###

Recorded EC values for a group of molecules are listed next.
Tested on: Klebsiella pneumoniae
Test method notes: Potentiation of aztreonam-induced antibacterial activity against Klebsiella pneumoniae 1004 producing KPC assessed as concentration required to reduce aztreonam MIC to 4 ug/ml by CLSI based broth microdilution method
Assay type: functional
Give just the number in µg/mL; leave the unit off.

Some entries whose results are on file:
{"columns": ["Molecule", "Quantitative readout"],
 "data": [
  ["O=C(O)CC1CCC[C@H](NC(=O)Cc2cccs2)B(O)O1 (stereo not given in full)", 20],
  ["Nc1nnc(SCC(=O)N[C@H]2CC=C[C@H](CC(=O)O)OB2O)s1", 5],
  ["O=C(O)C[C@H]1C=CC[C@H](NC(=O)c2cccnc2)B(O)O1", 10],
  ["O=C(O)CC1C=CC[C@H](NC(=O)Cc2cccs2)B(O)O1 (stereo not given in full)", 20]
]}

Consider now this further molecule.
Hey, Klebsiella pneumoniae data for O=C(O)C[C@@H]1CC[C@H](NC(=O)Cc2cccs2)B(O)O1 : EC came out at 1.25

###

Test method notes: Oral bioavailability in rat at 300 mg/kg measured upto 24 hrs by HPLC-MS analysis
Format: ADME, organism-based
Condition set: in vivo
Reported metric: bioavailability
Please answer in the form of a number followed by its unit of measurement.

Per the records, this molecule ( CSCC(=O)N[C@H]1CC=C[C@@H]2CC(=O)OB1O2 ) has bioavailability equal to 64.9%
